Experiment: yeast display, Sf9 membrane polyspecificity reagent, FACS + sequencing; frameworks hold sequencing errors

| sequence-record | polyreactivity (PSR sort gate) |
| --- | --- |
| QVQLVESGGGIVHAGCSLRLSSTASRFIFWWYAMAGYRQAHGKERELVATITASVGSTNYADSVKGRFTISRDNAKNTVYLQMNSLNPEDTAVYYCATDIIGAIRDWDHTRMDYWGQGTQVTVSS | low polyreactivity |
| QVQLVESGGGLVQAGGSLRLSCAASGRIFRYYAMGGYRQAPGKERELVATISRSGGSTFYAYSVKGRFTISRDNAKNTVYLQMNSLKPEDTAVYYCNARYQTGGYGYWGQGTQVTVSS | high polyreactivity |
| QVQLVESGGGIVQAGGSLRLSCAASGRIFGGNAMGWYRQAPGKERELVADISYGGGSTNYADSVKGRFTISRDNAKNTVYLQMNSLKPVDTAVYYCARDAWNTDGAYIGGDYDYWGQGTQVNVSS | low polyreactivity |
| QDQLVESGGGLDQAGGSLRLSCAATGGIIRQNVMGWYRQPPGKERELVAAISRRGVITYYADSVKGRFTISRDNAKNTVYLQMNSLKPDDTAVYYCNYKPTWDYSYWGQGTQLTVSS | high polyreactivity |
| QVHLVESGGGLVQAGGSLRLSCAASGFTFYKYVMGWYRQAPGKERELVAAITTSGGSTYYADSVKGRFTISRDNAKNTVYLQMNSLKPEDTAVYYCNARSLHTSEGDYWGQGTQVTVSS | low polyreactivity |
| QVQLVESGGGLVQAGGSLRLSCAASGSTFYFYVLGWYRQAPGKERELVAAISWGGASTYYAVSVKGRFTISRDHAKNTVYLQLNSLKPEDTAVYNCTDRLRVRYDYWGQGTQVTVSS | low polyreactivity |
| QVQLVESGGGLVQAGGSLRLSCAASGFIFPWYTMGWYRQAPGKERELVAVINQSGGSTYYADSVKGRFTISRDNAKNPVYLQMNSLKPEDTAVDYCAAKSYYSWGQGTQVTVSS | high polyreactivity |
| QVQLVESGGGLVQAGGSLRLSCAASGSTFGVYAMGWYRQAPGKERELVASISSRGRTKYADSVKGSFTISRDNAKNTVYLQMIRLKPEDTAFYYCAARIRYLGVRDNDNYYWGQGTQVTVSS | low polyreactivity |
| QVQLVESGGVLVQAGGSLRLSCAASGGIFGNYAMGWYRQAPGKERELVAVIDSSDGSTHYADSVKGRFTISRDNAKITVYLQMNSLKPEDTALYYCATQGFWNYWTFDYWGQGTQVTVSS | low polyreactivity |
| QVHLVESGGWLVQAGGSLRLSCAASGLTFYNYAMGWYRPAPGKEREFVAAISRSGGTTYYADSVKGRFTISRDNAKYTVYLQMISLKPEDTAVYYCNAQWWRYWPSQVIFDYWGQGSQVTVSS | high polyreactivity |
| QVQLVESGGGLVQAGGSIRLSCAASGRTFYLYAMGWYRQAPGKERELVAVISRRGGRTYYADSVKGRFTISRDNSKNTVYLQMNSLKPEDTAVYYCAVYSFGMGYWGQGTQVTVSS | high polyreactivity |
| QVQLVESGGGLVQAGGSLRLSCAPSGFTFVYYAMGWYRQAPGKERELVASISGGGRTYYADSVKGRFTISRDNAKNTVYLQMNSLKPEDTAVYYCAAEQYIRPYYRWVWVSYGYWGQGSQVTVSS | high polyreactivity |
| QVQLVESGGGLVQAGGSLRLSCAASGSTLISYTMGWYRQAPGKERELVAAITSAVTTYYADSVKGRFTISRDNAKNTVYLQMNSLKPEDTAVYYCNTYPFKTLPYRYPRGDYWGQGTQVTVSS | low polyreactivity |
| QVQLVESGGGLVQAGGSLRLSCAASGFTFSSYYMGWYRQAPGKERELVAAITSSGDDTYYADSVKGRFTISRDNAKNTVYLQMNSLKPEDTAVYYCAAEYTEGYTHDYGGQGTQVTVSS | low polyreactivity |
| QVQLVESGGGLVQAGGSLRLSCAASGHILFKYTMGWYRQAPGKERELVAAISRSGGTTYYADSVKGRFTISRDNAKNTVYLQMNSLKPEDTAVYYCAARVTPGRNGGGYWGQGTQVTVSS | high polyreactivity |
| QVQLVESGGGLVQAGGSLRLSCAASGSIFSINTMGWYRQAPGKERELVAAITRSGSGTYYADSVKGRFTISRDNAKNTVYLQMNSLKPEDTAVYYCNADDWVGRSLRYDYWGQGTQVTVSS | low polyreactivity |
| QVQLVESGGGLVQAGGSLRLSCAASGGTFLNYAMGWYRQAPGKERELVAVITNGDSTYYADSVKGRFTISRDNAKNSVYLQMNSLKPEDTAVYYCNADDWGQYNIWYDYWGQGTQVTVSS | low polyreactivity |
| QVQLVESGGGLVQAGGSLRLSCAASGSTFIVYAMGWYRQAPGKERELVAAISLDGGSTYYADSVKGRFTISRDNAKNTVYLQMNSLKPEDSAVYYCNADYYANSITYDSWGQGSQVTVSS | low polyreactivity |
| QVQLVESGGGLVQAGGSLRLSCAASGSTFYRYTMRWYRQAPGKERELVASIRWTGGRTNYADSVKGRFTISRDNAKNTVYLQMNSLKPEDTAVYYCAAYLKYPYAASYGSWGQGTQVTVSS | high polyreactivity |
| QVQLVESGGGLVQAGGSLRLSCAASGSTIGYYARGWSRQAPGKERELVARIRSTGVSTFYADSVKGRFTISRDNAKNTVYLQMNSLKPEDTAVYYCAAPVSSLGWKHRQYTTWYEYWGQGTQVTVSS | high polyreactivity |
| QVQLVESGGGLVQAGGSLRLSCAASGSTFLVYAMGWYRQAPGKERELVAAITRRSTSTFYADSVKGRFTISRVNAKNTVYLQMNSLKPEDTAVYYWAADTRFISRENYWGQGTQVTVSS | high polyreactivity |

----------
Assay: yeast display, Sf9 membrane polyspecificity reagent, FACS + sequencing; frameworks hold sequencing errors
measurement-name: polyreactivity (PSR sort gate)

| sequence-record | result |
| --- | --- |
| QVQLVESGGGLVQAGGSLRLSCAASGRIFPWNDMGWYRQAPGKERELVAAITYRGGRTYYADSVKGRFTISRDNAKNTVYLQMNSLKPEDTAVYYCAKTRYFSVGPHWDYYYWGQGTQVTVSS | high polyreactivity |
| QVQLVESGGGLVQAGGSLRLSCAASGSTFYGYAMGGYRQAPGKERELVAAISSSGGTTYYADSVKGRFTMSRDNAKNTVYLQMNSLKPEDTAVYYCAARRRSGTYWRSANDYWGQGTQVTVSS | high polyreactivity |
| QVQLVESGGGLVQAGGSLRLSCAASGSILEIYAMGWYRPAPGKEREFVASISWDVSSTYYADSVKGRFTISRDNAKNTVYLQMNSLKPEDTAVYYCATSLVWGLYDWYYDLSAAFDYWGQGTQVTVSS | low polyreactivity |
| QVQLVESGGGLVQAGGSLRLSCAASGTIFSRNAMGWYRQAPGKERELVAAITGSGSSTYYADSVKGRFTISRDNAKNTVYLQMNSLKPEDTAVYYCNAARVYLSEWGQGTQVTVSS | high polyreactivity |
| QVQLVESGGGLVQAGGSLRLSCAASGITFFTYAMGWYRQAPGKERELVATISRSGGRTYYADSVKGRFTISRDNAKNTVYLQMNSLKPEDTAVYYCAARTYYWGALIVSYDYWGQGTQVTVSS | low polyreactivity |
| QVQLVESGGGLVQAGGSLRLSCAASGSIFRWYAMGWYRQAPGKERELVAAISYSGGSTYYADSVKGRFTISRDNAKNTVYLQMNSLKPEDTAVYYCARLGWKPITAARDYWGQVTQVTVSS | high polyreactivity |
| QVQLVESGGGLVQAGGSLRLSCAASGRIFYTYAKGLSRQAPRKERELVATISNSGGSTYYADSVKGRFTISRDNAKNTVYLQMNSLKPEDTAVYSCAKDERAAPSASYAYYYWGQGTLVTVSS | low polyreactivity |
| QVQLVESGGGVVQAGGSLRLSCAASGSTFRYNARGWYRQAPGKEREFVAAITTSGVRTYYADSVKGRFTISRDNAKNTVYLQMNSLKPEDTAVYYCARRTPGTRWNYDYWGQGTQVTVSS | high polyreactivity |
| QVQLVESGGGLVQAGGSLRLSCAASGLIFYRYAMGWYRQAPAKERELVADITRDSGSTSYADSVKGRFTISRDYAKNTVYLQMNSLKPEDTAVYYCNAGWVYTASGRQYYITYDYWGQGTQVTVSS | high polyreactivity |
| QVQLVESGGGLVQAGGSLRLSCAASGFTFRKYAMGWYRQAPGKERELVAAISSSGTSTYYADSVKGRFTISRDNAKNTVYLQMNSLKPEDTAVYYCAADRYYWGRYTLNYWGQGTQVTVSS | low polyreactivity |
| QVQLVESGGGLVQAGGSLRLSCAASGFTFYRNAMGWYRPAPGKERELVAAISGRGGGTYYADSVKGRFTISRDNAKNTVYLQMNSLKPEDTAVYYCNARLSWSAFGYWGQGTQVTVSS | high polyreactivity |
| QVQLVESGGGLVQAGGSLRLSCAASGFTFSGYAMGWYRHAPGKERELVAAISSRGGRTYYADSVKGRFTISRDNAKNTVYLQMNSLKPEDTAVYYCAARSRRTDNSVQFDYWGQGTQVTVSS | high polyreactivity |
| QVQLLETCGGLVHAGCTLRLSCAPSRSTFRYNDMGRYRQAPGKERELDASISWSGGDTYYADSVKGRFTISRDNAKNTVYLQMNSLKPEDTAVYYCDKGNIWISRLMDDWGQGTQVTVSS | low polyreactivity |
| QVQLVESGGGLVQAGGSLRLSCAASGRTFRLYAMGWYRDATGKERELFAAISRRGTSTHYADSVKGRFTISRDNAKNTVYLQMNSLKPEDTAVYYCAVDSNTYSFYGTHDDWGQGTQVTVSS | high polyreactivity |
| QVQLVESGGGLVQAGGSLRLSCAASGSIFRVYAMGWYRQAPGKERELVAGISSRGGTSTYYADSVKGRFTISRDNAKNTVYLQMNSLKPEDTAVYYCAVQVRYPGYDYWGQGTQVTVSS | low polyreactivity |
| QVQLVESGGGLVQAGGSLRLSCAASGITFGANTMGCYRQAPGKERELVSAITISGGITHYADSVKGRVTISRDNAKHTVYLQLNSLKPEDTAVNYCAAGAYWRLYPYRQRNGGRRYYWGQGTQVTVSW | low polyreactivity |
| QVQLEESGGGLVQAGGSLRLRCAASGRTFHAYVMGWYRQAPGKERELVADISSGGDTYADSVKGRFTISRDNAKNTVYLQMNSLKPEDSAVYYCAVDLIQDESGYWGQGTQVNVSS | low polyreactivity |
| QVQLVESGGGLVQAAGSLRLSCAASGSIFGVNVMGWYRQAPGKERELVAAITTSGGSTYYADSVKGRFTISRDNAKNTVYLQMNSLKPEDTAVYYCAAEVYYPIFLTFYYRGQGTQVTVSS | high polyreactivity |
| QVQLVESGGGLVQAGGSLRLSCAASGSTFEDNAMGWYRQAPGKERELVAAITTGGGSTYYADSVKGRFTISRDNAKNTVYLQMNSLKPEDTAVYYCAVYRYYGFSLWYDYWGQGTLVTVSS | low polyreactivity |
| QVQIVESGGRLVQAGCSLRLSCAASGSTFKINAMGWYRQAPGKEWELVAVIRSRGTSTYYADSVKGRFTISRDNSKNTVYLQMNSLKPVDTAVYNCAAGRINGGDYWGQGTQVTVSS | high polyreactivity |
| QVQLVESGGGLVQAGGSLRLSGAASGGTFDYYAMGRYRQAPGKERELVAAISTSGGRTYYADSVKGRFTISRDNAKYTVYLQMNSLKPEDTAVYYCAALSPRAKYASFYYWGQGTQVTVSS | high polyreactivity |
